- Test system: Hs-578T
- Assay info: NCI tumour cell line growth inhibition, 48 h
Activity calls are given as the source filed them. No stated cut-off is given here; in the data, active = GI50 up to about 1.1 µM and inactive = higher. Where a SMILES comes first, the peptide text is derived from it. The star is where a group is joined. Fmoc = O=C(OCC1c2ccccc2-c2ccccc21)*; Boc = CC(C)(C)OC(=O)*
Kindly supply the reported GI50 values for the records listed here.

The molecule listed as C(=C\c1cc[n+](CCc2ccccc2)cc1)/c1ccccc1 shows GI50 equal to 15.2 µM (inactive)

GET /value?item= [O-][n+]1onc2c1CCC(=N\O)/C2=N/Nc1ccccc1 &field=GI50 returns > 100 µM (inactive)

For reference, reported GI50 for CCOC(=O)C1=C(C)NC(C)=C(C(=O)OCC)C1c1ccc(Cl)cc1 stands at 19.6 µM (inactive)

For record COC1=CC(=O)c2c(cc(COP(=O)(OCC3OC(n4cc(F)c(=O)[nH]c4=O)CC3O)N(C)CCCCCl)n2C)C1=O (configuration not stated) the listed GI50 is 0.0877 µM (active)

Briefly, GI50 measured for Cc1ccc(C(=O)N(Cc2ccccc2)Cc2ccccc2)cc1/N=N/N(C)C : 19.3 µM (inactive)

// field: GI50; key: Nc1nc(N)c(CCCCc2ccccc2)c(N)n1 ; value = > 100 µM (inactive)

The measured GI50 associated with O=C(O)c1nc2cc(C(F)(F)F)ccc2nc1Nc1ccc(Cl)c(Cl)c1 reads 14 µM (inactive)

Documented GI50 of C=C1C(NC)CCC23CC24CCC2(C)C(C(C)=O)C(O)CC2(C)C4CCC13 (configuration not stated) : > 100 µM (inactive)

Value of measured GI50 for the entry O=C1c2ccccc2-[n+]2ccc3c([nH]c4ccccc43)c21 [FASCAPLYSIN CHLORIDE] : 1.24 µM (inactive)

The reported GI50 of the molecule CC#CC(O)(C(=O)OC1CC2CCC(C1)N2C)C1CCCC1 (configuration not stated) was > 100 µM (inactive)

COC1C(O)CC(OC2C(C)OC(Oc3cc(O)c4c(O)c5c(cc4c3)C[C@@H]([C@H](OC)C(=O)[C@@H](O)[C@@H](C)O)[C@H](OC3CC(OC4CC(OC6CC(C)(O)C(O)C(C)O6)C(O)C(C)O4)C(O)C(C)O3)C5=O)CC2OC(C)=O)OC1C (some centres not stated) has a reported GI50 of 20.3 µM (inactive)

Per the record, O=C(Nc1ccn(C2CCC(CO)O2)c(=O)n1)c1ccccc1 (configuration not stated) has GI50 of > 100 µM (inactive)

Recorded result, Cc1ccc([N+](=O)[O-])c2c(NCCC[N+](C)(C)[O-])c3ccccc3nc12 , GI50: 3.24 µM (inactive)

The molecule listed as Clc1ccc(Cc2nc3ccccc3nc2-c2cccc(Br)c2)cc1 has a reported GI50 of 1.69 µM (inactive)

Input CN(C)CCNc1ccc2nnn3c4ccc(Cl)cc4c(=O)c1c23 . Output GI50: 3.3 µM (inactive)

Value of measured GI50 for the entry CC1=NN(C(=O)c2ccc(Cl)cc2)C(=O)C1/N=N/c1ccc(S(=O)(=O)Nc2ncccn2)cc1 (configuration not stated) : > 100 µM (inactive)

// GI50 value for COc1ccc(NC(=S)NNC(=O)c2cc(-c3ccccc3)nc3ccccc23)cc1 : 24 µM (inactive)

The reported GI50 of the molecule CCOC(=O)CNC(=O)C(CSCC1C(=O)Nc2ccccc21)NC(=O)CCC(N)C(=O)OCC (configuration not stated) was 4.21 µM (inactive)

Notebook: C#CCn1c(=O)c(I)cn(/C(=C\C(=O)OCC)C(=O)OCC)c1=O , GI50 read as 49.8 µM (inactive)

Memo: CCOC(=O)CCC(NC(=O)c1ccc(OCc2ccc3nc(-c4ccccc4)c(Cl)nc3c2)cc1)C(=O)OCC (configuration not stated) , reported GI50: 14.9 µM (inactive)

Sure, the documented GI50 for COC1C=C(NCC2(CO)CCC2)N=C(N)N1 (configuration not stated) is > 100 µM (inactive)

Item: O=C(c1ccc(Cl)cc1)N(C(=O)N1CCC(c2ccccc2)CC1)c1ccccc1 | GI50: 24.2 µM (inactive)

GI50 reading for Cc1ccc2nc3sc(=O)sc3nc2c1 : 25 µM (inactive)

For this molecule ( Cc1ccc(S(=O)(=O)Oc2nc3ccccc3nc2N(S(=O)(=O)c2ccc(C)cc2)S(=O)(=O)c2ccc(C)cc2)cc1 ), measured GI50 is 63.1 µM (inactive)

Record COC(=O)[C@H](C)N(C)C(=O)[C@H](C)N1[C@@H](c2ccccc2)COC1(C)C , field GI50: > 100 µM (inactive)

Lab note: CCOC(=O)[C@@H]1ON2O[C@@H](OC3CCCC3(c3ccccc3)c3ccccc3)C[C@H]3OC(=O)[C@@H]1C32 (some centres not stated) gave GI50 of 31.4 µM (inactive)

Note to self: GI50 recorded for COc1cc2ncnc(Nc3cccc(Br)c3)c2cc1OC was 4.44 µM (inactive)

Record COc1ccc(C2c3c(-c4ccccc4)nn(-c4ccccc4)c3Oc3ncn(N)c(=N)c32)cc1OC (configuration not stated) . Reported GI50: 1.97 µM (inactive)

GET /value?item= CSC1=NN(c2ccccc2)C(=O)C1=C(SC)SC &field=GI50 returns 18.1 µM (inactive)

For N=C(N)NCCCS(=O)(=O)Nc1ccc(Nc2c3ccccc3nc3cc([N+](=O)[O-])ccc23)cc1 the molecule record lists GI50 as 12.5 µM (inactive)

// sample N=C(N)N1CCC(N2CCOCC2)CC1 , its GI50 was > 100 µM (inactive)

GI50 measured on Cc1cc(-c2cc(C(C)(C)C)c(O)c(C(C)(C)C)c2)c(C)cc1-c1cc(C(C)(C)C)c(O)c(C(C)(C)C)c1 = > 100 µM (inactive)

Sure, the documented GI50 for CC(C)(C)OC(=O)NCCCCC(NC(=O)OCC1c2ccccc2-c2ccccc21)C(=O)N1CCCC1C(=O)NCC(N)=O (stereo not drawn) (Fmoc-Lys(Boc)-Pro-Gly-NH2; configuration not given here) is > 100 µM (inactive)

Data point: CC(C)C(OC(=O)c1ccc(NCc2cc(O)ccc2O)cc1)C(C)C ; GI50 = 1.02 µM (active)

Record summary for CC1=CCC[C@@](C)(O)[C@@H]2C[C@H]3C(CSc4ccccc4)C(=O)O[C@H]3[C@@H](O2)[C@H](C)CCC1 (some centres not stated) : reported GI50 = 18.4 µM (inactive)

For reference, reported GI50 for O/N=N/c1ccc(Sc2ccc(/N=N/O)cn2)nc1 stands at > 100 µM (inactive)

Value of GI50 reported for the molecule CN(CCCNC(=O)c1nn(C)c2c1Cc1ccccc1-2)CCCNC(=O)c1nn(C)c2c1Cc1ccccc1-2 is 20.5 µM (inactive)
